- study-target: α7-GlyR (Homo sapiens, UniProt P36544)
- Construct: expressed in transfected cells; host or cells: HEK cells
- Sequence (P36544 with tags, fused parts or gaps): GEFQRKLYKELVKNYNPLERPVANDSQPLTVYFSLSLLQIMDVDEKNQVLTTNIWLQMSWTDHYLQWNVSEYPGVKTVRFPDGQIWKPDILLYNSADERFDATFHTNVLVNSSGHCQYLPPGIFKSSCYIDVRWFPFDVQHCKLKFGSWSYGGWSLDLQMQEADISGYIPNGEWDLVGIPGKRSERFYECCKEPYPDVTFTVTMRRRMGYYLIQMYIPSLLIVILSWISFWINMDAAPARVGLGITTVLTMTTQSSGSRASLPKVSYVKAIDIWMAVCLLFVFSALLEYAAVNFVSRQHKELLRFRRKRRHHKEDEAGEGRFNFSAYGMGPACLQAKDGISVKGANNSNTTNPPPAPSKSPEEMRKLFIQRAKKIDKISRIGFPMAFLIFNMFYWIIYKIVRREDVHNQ
- test: Agonist potency (EC50), HEK cells expressing chimeric channel
- Format: cell-based
- assay-conditions: HEK cells; Table 3; read-out: α7-GlyR EC50
pEC50: −log10 of the molar value.
Documented pEC50 across a set of compounds

{"compound": "CN1[C@@H]2CCC[C@H]1C[C@@H](NC(=S)c1ccc(Cl)cc1)C2", "pEC50": "< 4.00"}
{"compound": "COc1ccc(OC)c(C(=O)NC2C3CCN(CC3)C2Cc2cccnc2)c1 (mixture of isomers)", "pEC50": "< 5.00"}

Proceeding to the next compound to report its pEC50.
Measured pEC50 of O=C(NC1CN2CCC1CC2)c1ccc(C(F)(F)F)cn1 (stereo not drawn) : < 4.00

* * *

Quick list: EC50 per entry.
- study-target: α7-5HT3 (Homo sapiens, UniProt P36544, M226I/T225I)
- Construct: expressed in transfected cells; host or cells: HEK cells
- Sequence (P36544 with tags, fused parts or gaps T225I/M226I): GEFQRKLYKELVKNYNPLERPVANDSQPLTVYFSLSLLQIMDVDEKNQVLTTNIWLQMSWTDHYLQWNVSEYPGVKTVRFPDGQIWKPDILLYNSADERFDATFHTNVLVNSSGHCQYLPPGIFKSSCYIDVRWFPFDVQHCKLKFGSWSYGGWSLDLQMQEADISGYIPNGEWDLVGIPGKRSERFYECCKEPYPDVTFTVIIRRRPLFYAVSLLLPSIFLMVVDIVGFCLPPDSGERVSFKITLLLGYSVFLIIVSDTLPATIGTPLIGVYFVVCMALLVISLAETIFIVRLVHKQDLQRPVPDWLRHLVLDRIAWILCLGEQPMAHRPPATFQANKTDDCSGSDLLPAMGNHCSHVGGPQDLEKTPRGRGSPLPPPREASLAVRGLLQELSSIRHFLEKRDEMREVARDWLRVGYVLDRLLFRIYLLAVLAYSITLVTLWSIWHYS
- test: Agonist potency (EC50), HEK cells expressing chimeric channel
- Format: cell-based, human α7 nAChR LBD, murine 5HT3 IPD
- assay-conditions: HEK cells; Table 3; read-out: α7-5HT3 EC50

Previously resolved entries follow.
{"molecule": "CN1[C@@H]2CCC[C@H]1C[C@@H](NC(=S)c1ccc(Cl)cc1)C2", "study-target": "α7-5HT3 (Homo sapiens, UniProt P36544, M226I/T225I)", "EC50": "> 33 µM"}
{"molecule": "O=C(NC1CN2CCC1CC2)c1ccc(C(F)(F)F)nc1 (stereo not shown)", "study-target": "α7-5HT3 (Homo sapiens, UniProt P36544, M226I/T225I)", "EC50": "> 100 µM"}
{"molecule": "COc1ccc(OC)c(C(=O)NC2C3CCN(CC3)C2Cc2cccnc2)c1 (mixture of isomers)", "study-target": "α7-5HT3 (Homo sapiens, UniProt P36544, M226I/T225I)", "EC50": "> 10 µM"}

Next molecule, please.
Documented EC50 of O=C(NC1CN2CCC1CC2)c1ccc(C(F)(F)F)cn1 (stereo not shown) : > 100 µM

These data points were gathered from patent US11124554B2.
